Values compiled from patent US20220040297A1.

target-or-test-system: CD3ε homodimer protein (human, UniProt P07766 23-126, limits assumed)
Sequence (P07766 23-126 limits assumed): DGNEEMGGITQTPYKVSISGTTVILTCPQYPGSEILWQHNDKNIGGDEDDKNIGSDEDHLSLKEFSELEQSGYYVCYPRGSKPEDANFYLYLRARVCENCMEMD
test-description: SPR, immobilized CD3ε homodimer;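 also: biacore T200 surface plasmon resonance at 25 °C, antibody variants flowed as analytes over amine-coupled CD3ε homodimer on a CM4 chip, variant binding amount divided by that of GLS3000 antibody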
Respond with T for ratio of amounts bound (vs GLS3000) values of 0.7 and above, F for values below.

| binder | classification |
| --- | --- |
| GLS3000 Q93R (antibody, name in Kabat numbering, V domains shown, one-arm format as m2) VH: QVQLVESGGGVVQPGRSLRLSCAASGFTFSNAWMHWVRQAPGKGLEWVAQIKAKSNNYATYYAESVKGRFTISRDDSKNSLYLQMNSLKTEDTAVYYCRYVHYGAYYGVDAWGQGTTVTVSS VL: DIVMTQSPLSLPVTPGEPASISCRSSQSLVHSNRNTYLHWYQQKPGQAPRLLIYKVSNRFSGVPDRFSGSGSGTDFTLKISRVEAEDVGVYYCGQGTRVPYTFGQGTKLEIK | T |
| GLS3000 S27eH (antibody, name in Kabat numbering, V domains shown, one-arm format as m2) VH: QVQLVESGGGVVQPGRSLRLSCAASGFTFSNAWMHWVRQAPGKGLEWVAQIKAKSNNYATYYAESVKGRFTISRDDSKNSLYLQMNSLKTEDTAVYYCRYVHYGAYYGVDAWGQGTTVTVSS VL: DIVMTQSPLSLPVTPGEPASISCRSSQSLVHHNRNTYLHWYQQKPGQAPRLLIYKVSNRFSGVPDRFSGSGSGTDFTLKISRVEAEDVGVYYCGQGTQVPYTFGQGTKLEIK | T |
| GLS3000 H34D (antibody, name in Kabat numbering, V domains shown, one-arm format as m2) VH: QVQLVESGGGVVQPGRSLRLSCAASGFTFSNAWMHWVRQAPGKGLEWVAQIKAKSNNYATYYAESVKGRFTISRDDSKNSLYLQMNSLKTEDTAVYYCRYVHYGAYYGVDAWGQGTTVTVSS VL: DIVMTQSPLSLPVTPGEPASISCRSSQSLVHSNRNTYLDWYQQKPGQAPRLLIYKVSNRFSGVPDRFSGSGSGTDFTLKISRVEAEDVGVYYCGQGTQVPYTFGQGTKLEIK | F |
| GLS3000 G91E (antibody, name in Kabat numbering, V domains shown, one-arm format as m2) VH: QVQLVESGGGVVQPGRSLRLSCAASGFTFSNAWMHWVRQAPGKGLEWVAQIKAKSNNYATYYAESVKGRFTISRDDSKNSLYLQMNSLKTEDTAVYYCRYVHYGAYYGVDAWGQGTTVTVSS VL: DIVMTQSPLSLPVTPGEPASISCRSSQSLVHSNRNTYLHWYQQKPGQAPRLLIYKVSNRFSGVPDRFSGSGSGTDFTLKISRVEAEDVGVYYCGQETQVPYTFGQGTKLEIK | F |
| GLS3000 V94Q (antibody, name in Kabat numbering, V domains shown, one-arm format as m2) VH: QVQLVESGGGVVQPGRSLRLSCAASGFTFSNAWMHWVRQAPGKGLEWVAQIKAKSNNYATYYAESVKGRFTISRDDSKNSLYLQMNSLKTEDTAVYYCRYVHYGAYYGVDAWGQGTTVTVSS VL: DIVMTQSPLSLPVTPGEPASISCRSSQSLVHSNRNTYLHWYQQKPGQAPRLLIYKVSNRFSGVPDRFSGSGSGTDFTLKISRVEAEDVGVYYCGQGTQQPYTFGQGTKLEIK | T |
| GLS3000 K50Y (antibody, name in Kabat numbering, V domains shown, one-arm format as m2) VH: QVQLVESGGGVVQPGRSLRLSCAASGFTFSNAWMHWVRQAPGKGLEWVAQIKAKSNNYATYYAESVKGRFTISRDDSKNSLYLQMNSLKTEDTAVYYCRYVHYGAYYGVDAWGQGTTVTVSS VL: DIVMTQSPLSLPVTPGEPASISCRSSQSLVHSNRNTYLHWYQQKPGQAPRLLIYYVSNRFSGVPDRFSGSGSGTDFTLKISRVEAEDVGVYYCGQGTQVPYTFGQGTKLEIK | F |
| GLS3000 S25P (antibody, name in Kabat numbering, V domains shown, one-arm format as m2) VH: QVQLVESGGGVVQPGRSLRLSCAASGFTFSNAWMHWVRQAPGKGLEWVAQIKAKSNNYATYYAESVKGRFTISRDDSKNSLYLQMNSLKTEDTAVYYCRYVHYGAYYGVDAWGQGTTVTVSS VL: DIVMTQSPLSLPVTPGEPASISCRPSQSLVHSNRNTYLHWYQQKPGQAPRLLIYKVSNRFSGVPDRFSGSGSGTDFTLKISRVEAEDVGVYYCGQGTQVPYTFGQGTKLEIK | T |
| GLS3000 N30V (antibody, name in Kabat numbering, V domains shown, one-arm format as m2) VH: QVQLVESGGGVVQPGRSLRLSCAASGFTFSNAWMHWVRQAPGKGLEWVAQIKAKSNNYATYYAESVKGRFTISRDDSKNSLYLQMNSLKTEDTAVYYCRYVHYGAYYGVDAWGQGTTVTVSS VL: DIVMTQSPLSLPVTPGEPASISCRSSQSLVHSNRVTYLHWYQQKPGQAPRLLIYKVSNRFSGVPDRFSGSGSGTDFTLKISRVEAEDVGVYYCGQGTQVPYTFGQGTKLEIK | F |
